Test system: SW-620 colon
assayExplanation: NCI tumour cell line growth inhibition, 48 h
observable: TGI

>  <molecule>
COC12C=CC(CC1)C1C(=O)c3c(C)c(C)n(C)c3C(=O)C12 (stereo unspecified)

>  <observedMeasurement>
> 100 µM

$$$$
>  <molecule>
C[N+](C)(CCCCCC[N+](C)(C)CCCN1C(=O)c2cc3ccccc3cc2C1=O)CCCN1C(=O)c2ccccc2C1=O

>  <observedMeasurement>
> 37.5 µM

$$$$
>  <molecule>
N.N.NC(CS)C(=O)[O-].NC(CS)C(=O)[O-].[Pt+4] (stereo unspecified)

>  <observedMeasurement>
> 50 µM

$$$$
>  <molecule>
Cc1ccc(S(=O)(=O)N2CCCCN(S(=O)(=O)c3ccc(C)cc3)Cc3ccccc3OCCOCCOc3c4cccc3Cc3cccc5c3OCCOCCOc3ccccc3CN(S(=O)(=O)c3ccc(C)cc3)CCCN(S(=O)(=O)c3ccc(C)cc3)Cc3ccccc3OCCOCCOc3c(cccc3C4)Cc3cccc(c3OCCOCCOc3ccccc3C2)C5)cc1

>  <observedMeasurement>
> 100 µM

$$$$
>  <molecule>
c1ccc(CCN(Cc2nc3ccccc3[nH]2)Cc2nc3ccccc3[nH]2)cc1

>  <observedMeasurement>
26 µM

$$$$
>  <molecule>
COC(=O)[C@H](Cc1ccccc1)NC(=O)N1CCN(C(=O)N[C@@H](Cc2ccccc2)C(=O)OC)CCN(C(=O)N[C@@H](Cc2ccccc2)C(=O)OC)CC1

>  <observedMeasurement>
> 100 µM

$$$$
>  <molecule>
O=c1c2cccnc2nc2ccc3c[nH][nH]c3c12

>  <observedMeasurement>
> 10 µM

$$$$
>  <molecule>
CC1C[C@]2(C)C(=S)Nc3ccccc3[C@@H]2Nc2ccccc21 (stereo partly specified)

>  <observedMeasurement>
55.7 µM

$$$$
>  <molecule>
CC1[C@@H](OCc2ccccc2)COC(=O)N1Cc1ccccc1 (stereo partly specified)

>  <observedMeasurement>
> 100 µM

$$$$
>  <molecule>
Fc1ccc(-c2ccc(-c3nnc(-c4cc(F)c(Cl)cc4Cl)o3)o2)cc1Cl

>  <observedMeasurement>
98.3 µM

$$$$
>  <molecule>
CC[N+](CC)(CC)CCCn1c2c(c3ccccc3c1=O)C(=O)c1ccccc1-2

>  <observedMeasurement>
> 100 µM

$$$$

----------
Test system: NCI-H226 lung
assayExplanation: NCI tumour cell line growth inhibition, 48 h

>  <compound>
O=C1N=C(c2ccccc2)O/C1=C\c1ccccc1

>  <measurementTarget>
NCI-H226 lung

>  <censoringSign>
>

>  <TGI (µM)>
100

$$$$
>  <compound>
COc1cc(/C=C/C(=O)c2ccc(Cl)cc2)ccc1OS(=O)(=O)c1ccc(C)cc1

>  <measurementTarget>
NCI-H226 lung

>  <censoringSign>
=

>  <TGI (µM)>
27.9

$$$$
>  <compound>
O=c1cc(-c2cccc(OC(F)(F)F)c2)[nH]c2cc3c(cc12)OCO3

>  <measurementTarget>
NCI-H226 lung

>  <censoringSign>
=

>  <TGI (µM)>
9.16

$$$$
>  <compound>
CC1N(C)C(=O)OC12CCN(CCCC(=O)c1ccc(F)cc1)CC2 (configuration not stated)

>  <measurementTarget>
NCI-H226 lung

>  <censoringSign>
>

>  <TGI (µM)>
100

$$$$
>  <compound>
C[Si](C)(C)OC1c2[nH]c3ccccc3c2CN2C(=O)CCC12 (configuration not stated)

>  <measurementTarget>
NCI-H226 lung

>  <censoringSign>
>

>  <TGI (µM)>
100

$$$$
>  <compound>
COc1ccc2c3ccc4c(c3n(C)c2c1)C(=O)c1ccccc1C4=O

>  <measurementTarget>
NCI-H226 lung

>  <censoringSign>
>

>  <TGI (µM)>
100

$$$$
>  <compound>
O=[N+]([O-])/C=C/c1c[nH]c2ccccc12

>  <measurementTarget>
NCI-H226 lung

>  <censoringSign>
=

>  <TGI (µM)>
40.4

$$$$
